# System: panel of nearly 500 cancer cell lines
# assay details: Cancer Cell Line Encyclopedia profiling, 3-day CellTiter-Glo
# Type: cell-based
# settings: ncih650 (lung); read-out: IC50
pIC50: −log10 of the molar value.
result type: pIC50

Query: Fill in pIC50 for record "CC(=O)c1c(C)c2cnc(Nc3ccc(N4CCNCC4)cn3)nc2n(C2CCCC2)c1=O"
Response: < 5.10

---

# System: panel of nearly 500 cancer cell lines
# assay details: Cancer Cell Line Encyclopedia profiling, 3-day CellTiter-Glo
# Format: cell-based
# settings: Homo sapiens, Hs746T
pIC50: −log10 of the molar value.
result type: pIC50

Query: Fill in pIC50 for record "CN(C)C(=O)c1cc2cnc(Nc3ccc(N4CCNCC4)cn3)nc2n1C1CCCC1"
Response: < 5.10

---

# System: panel of nearly 500 cancer cell lines
# assay details: Cancer Cell Line Encyclopedia profiling, 3-day CellTiter-Glo
# Type: cell-based
# settings: Homo sapiens, HT-1080
result type: IC50

Query: Fill in IC50 for record "CN(C)C(=O)c1cc2cnc(Nc3ccc(N4CCNCC4)cn3)nc2n1C1CCCC1"
Response: > 8 µM

---

# Tested on: panel of nearly 500 cancer cell lines
# assay details: Cancer Cell Line Encyclopedia profiling, 3-day CellTiter-Glo
# Assay type: cell-based
# settings: jhh6 (liver); read-out: IC50
pIC50: −log10 of the molar value.
result type: pIC50

Query: Fill in pIC50 for record CC(=O)c1c(C)c2cnc(Nc3ccc(N4CCNCC4)cn3)nc2n(C2CCCC2)c1=O [Palbociblib]
Response: < 5.10

---

# Test system: SK-MEL-30
# assay details: cells
# Type: cell-based
# settings: Homo sapiens, SK-MEL-30, 72 h
pIC50: −log10 of the molar value.
result type: pIC50

Query: Fill in pIC50 for record CN(C)C(=O)c1cc2cnc(Nc3ccc(N4CCNCC4)cn3)nc2n1C1CCCC1 [Ribociclib]
Response: < 5.00

---

# System: panel of nearly 500 cancer cell lines
# assay details: Cancer Cell Line Encyclopedia profiling, 3-day CellTiter-Glo
# Assay type: cell-based
# settings: Homo sapiens, TCC-SUP
result type: pEC50
// scale note: pEC50 = -log10(conc_M); give the bare number

Query: Param request: pEC50 | system panel of nearly 500 cancer cell lines | item CC(=O)c1c(C)c2cnc(Nc3ccc(N4CCNCC4)cn3)nc2n(C2CCCC2)c1=O [Palbociclib, reference compound]
Response: 5.68

---

# System: panel of nearly 500 cancer cell lines
# assay details: Cancer Cell Line Encyclopedia profiling, 3-day CellTiter-Glo
# Assay type: cell-based
# settings: Homo sapiens, NCI-H747
pIC50: −log10 of the molar value.
result type: pIC50

Query: Fill in pIC50 for record "CN(C)C(=O)c1cc2cnc(Nc3ccc(N4CCNCC4)cn3)nc2n1C1CCCC1"
Response: < 5.10

---

# Tested on: panel of nearly 500 cancer cell lines
# assay details: Cancer Cell Line Encyclopedia profiling, 3-day CellTiter-Glo
# Type: cell-based
# settings: Homo sapiens, RVH-421
result type: EC50 (µM)
Your answer should be a plain number; it is taken to be in µM.

Query: Fill in EC50 for record CC(=O)c1c(C)c2cnc(Nc3ccc(N4CCNCC4)cn3)nc2n(C2CCCC2)c1=O [Palbociclib, reference compound]
Response: 0.689

---

# Tested on: panel of nearly 500 cancer cell lines
# assay details: Cancer Cell Line Encyclopedia profiling, 3-day CellTiter-Glo
# Assay type: cell-based
# settings: Homo sapiens, NCI-H211
result type: IC50

Query: Param request: IC50 | system panel of nearly 500 cancer cell lines | item "CN(C)C(=O)c1cc2cnc(Nc3ccc(N4CCNCC4)cn3)nc2n1C1CCCC1"
Response: > 8 µM
